src = PubChem BioAssay (NCI)

Tested on: NCI-H23 lung
Assay: NCI-60 one-dose screen, 48 h (100 = growth as untreated, 0 = no growth, -100 = all killed)
Details: 10 µM unless noted
This is part of a sample that, as a whole, favours compounds with a hit. Of some 83,000 tested, about 20% had one in any assay.
Use condition met when the recorded growth is no lower than 60%; use condition not met when it is lower.

Example results:
COMPOUND | LABEL CLASS
COc1cc(/C=C/C(=O)c2ccccc2)ccc1Oc1nc(Nc2ccc(F)cc2)nc(N(C)C)n1 | condition not met
COc1c(F)ccc(C(=O)Nc2ccc3nc(NC(=O)C4CCCN(S(=O)(=O)c5ccc(C(F)(F)F)cc5)C4)sc3c2)c1F (configuration not stated) | condition met
COc1ccc2[nH]c(O)c(N=NC(=O)Cn3c(-c4ccccc4)nc4cc(C)ccc43)c2c1 | condition not met
CN1CCc2c(sc3ncnc(N/N=C/c4ccc(Cl)cc4Cl)c23)C1 | condition not met
C=C1CCC2C3(C)COC(c4cccc(F)c4)OC3CCC2(C)C1C/C=C1/C(=O)OCC1O (configuration not stated) | condition not met
CCN1C(=O)N(CC)C2NNC(Sc3c(C(=O)O)c4ccccc4n(C4CCCC4)c3=O)=NC21 (configuration not stated) | condition not met

### Prompt Answer whether growth of O=C(c1ccc(Cl)cc1)c1ccc(OCCCN2CCN(c3ccncc3)CC2)cc1 is greater than or equal to 60%.
### Response condition not met

### Prompt Check this compound for growth at or above 60%: COc1ccc(C(SCCNCc2cc(N(C)C)ccn2)(c2ccccc2)c2ccccc2)cc1
### Response condition not met

### Prompt Hi, just wondering whether CC12CC[C@@H]3[C@]4(C)COC(c5c(F)cccc5F)O[C@@H]4CC[C@@]3(C)[C@@H]1CC(C1=CCOC1=O)O2 (some centres not stated) shows growth of 60% or higher.
### Response condition met

### Prompt hey, is growth for this one >= 60%? COc1ccc(C(=O)/C=C/c2ccc(OCc3ccc(F)cc3)c(OC)c2)cc1OC
### Response condition not met

### Prompt Answer whether growth of COc1cccc(-c2nc(Nc3ccc(S(N)(=O)=O)cc3)c3ccccc3n2)c1 is greater than or equal to 60%.
### Response condition not met

### Prompt // inclusive: growth at least 60%? input: N#Cc1ccc(/C=N/NC(=O)c2[nH]c3ccc(Br)cc3c2-c2ccccc2)o1
### Response condition not met

### Prompt Test whether the compound N/C(=N\c1nc2ccccc2s1)NC(=O)Nc1ccccc1Br records growth of 60% or higher.
### Response condition not met

### Prompt hey, is growth for this one >= 60%? COc1ccc(C(=O)/C=C/c2ccccc2Br)cc1S(N)(=O)=O
### Response condition not met
